Below, each of the compounds is paired with its reported TGI value.
- Tested on: RPMI-8226 leukemia
- assay-protocol: NCI tumour cell line growth inhibition, 48 h

Solved entries (count: 3):
NC(Cc1c[nH]c2ccc([N+](=O)[O-])cc12)C(=O)O (stereo not given)
> 100 µM
Cc1cc(S(=O)(=O)Nc2nnc3ccccn23)c(S)cc1Cl
> 100 µM
Cn1c(=O)c(Oc2ccc(F)cc2F)cc2cnc(N[C@@H]3CCOC3)nc21
> 25 µM

Incoming: Look up TGI: Clc1ccc2c(c1)N(C1CCCN(Cc3ccccc3)C1)c1ccccc1S2 (stereo not given)
Outgoing: > 100 µM

Incoming: Look up TGI: O=C(Nc1ccccc1)OC1OC(COC(=O)c2ccccc2)C(OC(=O)c2ccccc2)C1OS(=O)(=O)c1ccc([N+](=O)[O-])cc1 (stereo not given)
Outgoing: > 100 µM

Incoming: Look up TGI: `CC1=NN2C(c3ccc([N+](=O)[O-])cc3)=CSC2=NC(C)(C)C1`
Outgoing: > 100 µM

Incoming: Look up TGI: N#CC1(C#N)C=CC(=C2OCC3CCCN23)C=C1 (stereo not given)
Outgoing: > 100 µM

====

- Tested on: BT-549 breast
- assay-protocol: NCI tumour cell line growth inhibition, 48 h; in the data active = GI50 below about 0.43 µM; inactive = the rest
Allowed answers: T for active, F for inactive

Incoming: # lookup: test call for `O=C1Cc2cc(CCn3cncn3)c(Cl)cc2N1`
Outgoing: F

Incoming: # lookup: test call for `N#Cc1nc(C#N)c(Sc2ccccc2)c(Sc2ccccc2)c1Sc1ccccc1`
Outgoing: T

Incoming: # lookup: test call for `CCCCOc1ccc(/C=N/Nc2cc(C)nc3ccc(Br)cc23)cc1`
Outgoing: F

====

- System: OVCAR-3 ovarian
- assay-protocol: NCI tumour cell line growth inhibition, 48 h
experimental-readout: TGI

Solved entries (count: 4):
C[C@]12CC[C@H](O)CC1=CC[C@@H]1C2CC[C@]2(C)C(=O)NC(=O)CC12 (stereo not given in full)
> 100 µM
O=[N+]([O-])c1cc(-[n+]2cc([O-])on2)ccc1Cl
> 100 µM
c1ccc2c(c1)c1c3c(c4c(n32)=NCCN4)CCC1
> 100 µM
Cn1c(=O)cc2[nH]c3ccccc3n2c1=O
> 100 µM

Incoming: Look up TGI: `CS(=O)(=O)c1cccc(Nc2ncc3cc(-c4ccccc4Cl)ccc3n2)c1`
Outgoing: > 33.3 µM

Incoming: Look up TGI: CC(O)(C#N)CC(O)(C(F)(F)Cl)C(F)(F)Cl (stereo not given)
Outgoing: > 10 µM

Incoming: Look up TGI: CCOC(=O)CCC(NC(=O)c1ccc(Oc2nc3c(N)cc(C(F)(F)F)cc3nc2-c2ccccc2)cc1)C(=O)OCC (stereo not given)
Outgoing: > 30.9 µM

Incoming: Look up TGI: `O=[N+]([O-])c1ccc2sc(/C=N/c3ccccn3)cc2c1`
Outgoing: > 100 µM

Incoming: Look up TGI: NC(CCP(=O)(O)O)C(=O)O (stereo not given)
Outgoing: > 100 µM

Incoming: Look up TGI: `CC1(C)C(=O)C(C)(C)C1=NNC(N)=S`
Outgoing: > 100 µM

====

- Test system: TK-10 renal
- assay-protocol: NCI tumour cell line growth inhibition, 48 h
experimental-readout: TGI

O=C(c1ccc([N+](=O)[O-])cc1)C(Br)C(Br)c1ccnc2ccccc12 (stereo not given)
12.6 µM

Incoming: Look up TGI: COc1ccc(O)cc1C(O)c1ccccc1 (stereo not given)
Outgoing: > 100 µM

Incoming: Look up TGI: `CC(=O)NNc1nc(C)c(C(=O)NNC(=O)C(=O)Nc2c([N+](=O)[O-])ccc(C)c2C)s1`
Outgoing: > 100 µM

Incoming: Look up TGI: `Fc1ccc(-c2nn3ccccc3c2-c2ccncc2)cc1`
Outgoing: > 25 µM

Incoming: Look up TGI: `C[N+](C)(C)c1cc[c]([Sn]([c]2ccc([N+](C)(C)C)cc2)([c]2ccc([N+](C)(C)C)cc2)[c]2ccc([N+](C)(C)C)cc2)cc1`
Outgoing: > 100 µM

====

- Test system: HS 578T breast
- assay-protocol: NCI tumour cell line growth inhibition, 48 h
experimental-readout: TGI

Solved entries (count: 5):
COC(=O)Cc1c([C@H]2[C@H](CC(=O)OC)c3ccccc3N2S(=O)(=O)c2ccc(C)cc2)[nH]c2ccccc12
> 100 µM
CCc1c(CNC2=NCCN2)c(CC)c(CNC2=NCCN2)c(CC)c1CNC1=NCCN1
> 100 µM
O=C1OCC(c2ccc(Cl)cc2)=C1Cl
> 100 µM
COC(=O)c1c(C)c2c(c(C)c1C(=O)OC)-c1c(C)ccc3ccc(C)c-2c13
> 100 µM
Nc1cc2ncnn2c(SCC(=O)N/N=C/C(Br)=C\c2ccccc2)n1
> 100 µM

Incoming: Look up TGI: `O=C1NC2(CCCCC2)C(=O)N1CCN(CCCl)CCCl`
Outgoing: > 25 µM

Incoming: Look up TGI: `CC[C@H](C)[C@H](NC(=O)[C@H]1CCCCN1C)C(=O)N(C)[C@H](C[C@@H](OC(C)=O)c1cccc(C(=O)N[C@@H](Cc2ccccc2)C[C@H](C)C(=O)O)n1)C(C)C`
Outgoing: > 25 µM

====

- System: MOLT-4 leukemia
- assay-protocol: NCI tumour cell line growth inhibition, 48 h
Below, each of the molecules is paired with its reported TGI value.

Solved entries (count: 2):
NS(=O)(=O)c1ccc(NC(=O)C2C(=O)C(=O)N(c3ccc(S(N)(=O)=O)cc3)C2=O)cc1 (stereo not drawn)
> 100 µM
O=C(Nc1cc(Cl)cc(Cl)c1)c1cccc(NC2=C(Cl)C(=O)N(Cc3ccccc3)C2=O)c1
> 100 µM

Then there is this molecule:
Incoming: Look up TGI: `O=[N+]([O-])c1cc(N=Nc2c(O)ccc3cc(S(=O)(=O)O)ccc23)c(O)c([N+](=O)[O-])c1`
Outgoing: > 100 µM

====

- Test system: UO-31 renal
- assay-protocol: NCI tumour cell line growth inhibition, 48 h
Below, each of the compounds is paired with its reported TGI value.

CC(=O)Nc1cc2cc(NS(=O)(=O)c3ccc(Cl)c(Cl)c3)ccc2oc1=O
> 100 µM
CCOC(=O)CSC1NC(C(=O)OC)CC1OC (stereo not drawn)
> 100 µM

Incoming: Look up TGI: `O=C1Cc2cc(CCn3cncn3)c(Cl)cc2N1`
Outgoing: > 100 µM

====

Below, each of the compounds is paired with its reported TGI value.
- Test system: RXF 393 renal
- assay-protocol: NCI tumour cell line growth inhibition, 48 h

O=[N+]([O-])c1ccc2sc(/C=N/c3ccccn3)cc2c1
> 100 µM

Incoming: Look up TGI: `Cc1ccc(-c2nc(-c3nccc4ccccc34)oc2-c2ccccc2)cc1`
Outgoing: > 100 µM

Incoming: Look up TGI: `O=C1C=C(OCC=C(C(F)(F)F)C(F)(F)F)c2ccccc2C1=O`
Outgoing: 3.18 µM

Incoming: Look up TGI: O=C(CC1C(=O)Nc2ccccc2S1(=O)=O)Nc1ccc(Cl)cc1 (configuration not stated)
Outgoing: 38.5 µM

Incoming: Look up TGI: `S=C(N/N=C/c1ccccn1)N1CC2CCC(CC2)C1`
Outgoing: 3.19 µM

Incoming: Look up TGI: `C[n+]1c2ccccc2c(CNCC(=O)O)c2ccccc21`
Outgoing: 6.5 µM

Incoming: Look up TGI: `Oc1ccc2ccccc2c1C=NCc1c(O)ccc2ccccc12`
Outgoing: 9.34 µM

====

- Test system: CAKI-1 renal
- assay-protocol: NCI tumour cell line growth inhibition, 48 h
experimental-readout: TGI

CC1(C)C(=O)C(C)(C)C1=NNC(N)=S
> 100 µM
CC(C)OC(=O)[C@H]1ON2O[C@H](O[C@@H]3CCCC[C@H]3c3ccccc3)C([Si](C)(C)c3ccccc3)[C@H]3OC(=O)[C@@H]1C32 (some centres undefined)
> 100 µM
CC1=C(C(=O)Nc2ccc(F)c(Cl)c2)C(c2cccc(Oc3ccccc3)c2)NC(=S)N1 (centres undefined)
> 50 µM

Then there is this molecule:
Incoming: Look up TGI: `Cc1nc2sc3c(N)ncnc3c2c(C)c1C`
Outgoing: > 25 µM

====

- Test system: U251 CNS
- assay-protocol: NCI tumour cell line growth inhibition, 48 h
experimental-readout: TGI

Solved entries (count: 4):
O=C(O)CCCNc1ncc2c(n1)-c1ccccc1OC2
> 100 µM
c1ccc(Oc2ccc(Nc3ncc(-c4ccccc4)o3)cc2)cc1
> 25 µM
COc1ccc(O)cc1C(O)c1ccccc1 (centres undefined)
> 100 µM
N#Cc1ccc(Oc2ccccc2)cc1C#N
> 100 µM

Incoming: Look up TGI: `COc1c(I)c(OC)c2c(c1I)O[C@@H]1OCC[C@H]21`
Outgoing: > 100 µM

Incoming: Look up TGI: `O=C(Nc1cc(Cl)cc(Cl)c1)c1cccc(NC2=C(Cl)C(=O)N(Cc3ccccc3)C2=O)c1`
Outgoing: > 100 µM

Incoming: Look up TGI: CC(C)OC(=O)[C@H]1ON2O[C@H](O[C@@H]3CCCC[C@H]3c3ccccc3)C([Si](C)(C)c3ccccc3)[C@H]3OC(=O)[C@@H]1C32 (some centres undefined)
Outgoing: > 100 µM

Incoming: Look up TGI: `CC[C@H](C)[C@H](NC(=O)[C@H]1CCCCN1C)C(=O)N(C)[C@H](C[C@@H](OC(C)=O)c1cccc(C(=O)N[C@@H](Cc2ccccc2)C[C@H](C)C(=O)O)n1)C(C)C`
Outgoing: > 25 µM

Incoming: Look up TGI: CC(C)(C)OC(=O)[C@@H]1ON2O[C@H](OC3CCCC3(c3ccccc3)c3ccccc3)C[C@H]3OC(=O)[C@@H]1[C@H]32 (some centres undefined)
Outgoing: > 100 µM
